Assay: Appearance of polyketone in water at 20% w/v
Format: physicochemical
Conditions: 1 g in 5 mL distilled water
Description: To a solution or dispersion of the polyketone (1 g in 5 mL of distilled water) is added hydrazide (0.9 stoichiometric equivalents of acyl hydrazide moiety compared to ketone functional group).
QUANTITY: Polyketone in water at 20% w/v

Before answering, review these 4 worked examples.
{"COMPOUND": "CC(=O)CCC(=O)OCC(COC(=O)CCC(C)=O)OC(=O)CCC(C)=O [Polyketone compound (3), Glycerol Trilevulinate]", "RECORDED VALUE": "Unstable emulsion"}
{"COMPOUND": "CC(=O)CCC(=O)OCCOCCOC(=O)CCC(C)=O [Polyketone compound (2), Diethyleneglycol Dilevulinate]", "RECORDED VALUE": "Clear solution"}
{"COMPOUND": "CC(=O)CCC(=O)OCCN(CCOC(=O)CCC(C)=O)CCOC(=O)CCC(C)=O [Polyketone compound (6), Triethanolamine Trilevulinate]", "RECORDED VALUE": "Clear solution"}
{"COMPOUND": "CC(=O)CCC(=O)OCCOC(=O)CCC(C)=O [Polyketone compound (1), Ethyleneglycol Dilevulinate]", "RECORDED VALUE": "Clear solution"}

Now look at this one.
Noted for CC(=O)CCC(=O)OC(C)C(C)OC(=O)CCC(C)=O (centres unmarked) [Polyketone compound (7), 2,3-Butanediol Dilevulinate] : its Polyketone in water at 20% w/v reads Unstable emulsion
